test: label from the status in PepcDB records;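 note: failed if final PepcDB status was selected cloned or expressed and not failed if soluble or beyond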

| query_sequence | protein production |
| --- | --- |
| MRFRYAMVCSSNQNRSMEAHALLKRQGLDVASYGTGSHVKLPGPSLREPNVYDFGTPYKQMFDELRRKDPELYKRNGILQMIKRNLSVKLAPQRWQDNAGDGVFDVVMTFEEKVFDSVLEDLNNREQSLTKTILVMNLEVKDNHEEAAIGGRLALELCQEIEGNETWEDTIDDIVAGFEKQHRRKLVYSISFY | failed |
| MNKRNTQQRRHSIISILNEQGEVSVDELSLRFETSEVTIRKDLAELEKTGLLLRRYGGAVAIPDEVTQQFSAKIAPNKLSIAKAAAQLIKDHNRIIIDSGTTTSGLIAELNQKRGLVVMTNALHLANAIHELENEPTLLMTGGTWDPHSESFQGQVAEQVLRSYNFDQLFIGADGIDLARGTTTFNELTGLSKVMAEVSREVIVMVDSDKIGKRIPNLELPWSKISVLVTDARIEESALKQITEQGVKVILAPYSP | failed |
| ETDKTAISVREIADNTYIVLGTMTLNDFNEYFETDLESDNVDTIAGFYLTGVGTIPSQEEKEHFEVESNGKHLELINDKVKDGRVTKLKILVSE | failed |
| MELEQKLNLLNDLIVREIVNPLPPPYKVGVDLGTADIVLVVTDQEGIPVAGALKWASVVKDGLVVDYIGAIQIVRELKAKVERLLGSELFQAATAIPPGTVGRNAEACGHVVAGAGLELVTLVDEPVAAARALGINDGIVVDIGGGTTGIAVIEKGKITATFDEPTGGTHLSLVLAGSYKIPFEEAETIKKDFSRHREIMPVVRPVIEKMALIVKEVIKNYDQTLPVYVVGGTAYLTGFSEEFSRFLGKEVQVPIHPLLVTPLGIALFG | not failed |
| MTPDRKGDGGPSPLGDLKDALGGYLSAAGHGLVGRAGDRLGSLTDRLTESADGGGANGGTGGSEPGTGGSRSGSDGSKSGSGGSKSGSGGSKSGGSVKATHIMETVDIGVPLRTVYDQWTQLQDFSDFTKGVQSVSPHDETTSDWTAKIAFSTRSWKATVQEQIPDQRIVWTSEGAKGSTNGVVTFHELAPRLTRVVVVVEYYPAGFFEKTGNLWRAQGRRLRLDLKHFARHVTMTDAEEIEGWRGEIRDGEVVKSHEEALEEDEDAADEYEDDEEGEYDEEESDGEVPDGEEEPYADEDDGEYENDDAYEADDEDDERARPRR | failed |
| DPKEGVQYEVLSTSLENDGMAPVTEVFALSCGHCRNMENFLPVISQEAGTDIGKMHITFNQSAHIASMFYYAAEMQVDGAPDHAFMEDLFAATQMGEGTTLTEQQEAYSKAFTSRGLVSPYDFNEEQRDTLIKKVDNAKMLSEKSGISSVPTFVVNGKYNVLIGGHDDPKQIADTIRYLLEK | not failed |
| LTRSNISYFSIGSGTPIIFLHGLSLDKQSTCLFFEPLSNVGQYQRIYLDLPGMGNSDPISPSTSDNVLETLIEAIEEIIGARRFILYGHSYGGYLAQAIAFHLKDQTLGVFLTCPVITADHSKRLTGKHINILEEDINPVENKEYFADFLSMNVIINNQAWHDYQNLIIPGLQKEDKTFIDQLQNNYSFTFEEKLKNINYQFPFKIMVGRNDQVVGYQEQLKLINHNENGEIVLLNRTGHNLMIDQREAVGFHFDLFLDELNSN | failed |
| MIKLKNDRLEVEIDNMGAQLTHVIGNESGYDYIWNGDAWKKHAPILFPAIGKSNNDEYVVDGKTYRMPQHGFARDFDWQKVNQAENRVMLELKSNAKTKEMFPFDFTLQVEYKLDQNQLLIGYRVINNDQRMMPYALGSHPAFNLPIDDDGVFEDYRLTFGPKQKQIKRLGVGPIPFRDGTEAPYPSIQASELALNHEMFDDGLIILNAKKLENVTLHSNQTAHEVKLNIKQFPYLTLWAMEHETQPFICIEPFAGLPDQASDQPTDWNNKKGNNLLEAGESHTFEYGIEFK | failed |
| MKFFFLLQIALILLSNSSLLFGQSPPKEKEDSLLLYKEGKFKEAILNTLEEIRLNPSNLDARTILIWSLIAIGEYKRAEKEAIIGLGIKKHDIRIIQALGEAYFFQKNYDNALKYFQEYISLDSKGARIIKVYNLIADSFYELKRYNEADFAYEHALRFSPNNQNLLIKLARSRINAKNKILAEEALIKILTISPNNLEAKNLLEELKKSNNKP | failed |
| MAIKLSSIDQFEQVIEENKYVFVLKHSETCPISANAYDQFNKFLYERDMDGYYLIVQQERDLSDYIAKKTNVKHESPQAFYFVNGEMVWNRDHGDINVSSLAQAEE | not failed |
| ALVNIVVTNRCDLSCFYCFFYAERAGYIYEPSIEQIKFMVRQVARQRQGSDVHVNIQITGGEPTVREDLVDVVKAIREAGAHYIQLNTNGINVARRYLDNPPGAIDYVRSLREAGVSVVYMSFDGVTPKVNWKNHYEAPFALKAFQEGGLDNVVLVPTVIRTINDHEVGDIIRFAGKHIDVVRGVNFQPVSLTGM | failed |
| MTRTVTGDTVQTRWGPVQVRVTVRNGVITEVTAVACPQENPKDREINSYAIPQLRREALAAQSAQIDSVSGATYTSDGYRQSLQSALDSAGLLEHHHHHH | not failed |
| MSKIASEVVATTLNDWYIAIKKQKVDESIKYYSEIKKLFDEMEEDQEVLAYYSLLEERHKMLLHSSRGEPLQKHTYFTEDNQNFITKTNDKLEYNFYLFEAMYEAYNKNYDRAINLYGLAEKKLAEIPDEIEAAEFYSKVSYLYTLVKQSIVAQHYIKNAISIYKRHPDYKCKLATSTMIAAANYADMKRFEEAEQYYLEAIDIAKETKDEFLKAQLFHNLSIVYSDWNKPDKCIESLEKAIGNESWLHSIYYINSLFMMIKELFKIDEKMKAINFYNKAQERLILMENKVYEAKISILYNLYCGELKNNFNNCISNIEFLKQQNELESVDELSYIAAKRFESIGAFEEATSFFNAKIWAEQKMNQVEGIL | failed |
